The reported measurements were obtained from patent US20150125889A1.

System: Pseudomonas aeruginosa
assay method text: Reduction of azo substrates over 24 hours at 35° C., microtitration plate (Example 1)
Type: cell-based
Design: key: The symbol “+” means good growth/decolourization/significant increase in fluorescence; The symbol “+/−” means difficult growth; The symbol “−” means that there is no growth/decolourization/significant increase in fluorescence
measurement parameters: P. aeruginosa, substrate 35 mg/l
observable: Fluo (fluorescence multiplied by 2 relative to substrate-free control)

INSERT INTO results (compound, reported) VALUES
  ('O=C(O)c1ccccc1/N=N/c1cc(Br)c(O)c(Br)c1', '−'),
  ('O=C(O)c1ccccc1/N=N/c1cc(Cl)c(O)c(Cl)c1', '+'),
  ('CN(C)c1ccc(/N=N/c2ccccc2C(=O)O)cc1 [Methyl red]', '+'),
  ('Oc1ccc2ccccc2c1/N=N/c1ccc(/C=C/c2ccnc3ccccc23)cc1 [BF38]', '−'),
  ('O=S(=O)([O-])c1ccc(N=Nc2c(O)ccc3ccccc23)cc1.[Na+] [Orange II]', '−'),
  ('Nc1ccc(/N=N/c2ccc(S(=O)(=O)O)cc2)cc1S(=O)(=O)O [4-aminoazobenzene-3,4′-disulfonic acid, 4-Aminoazobenzene-3,4′-disulfonic acid]', '−'),
  ('O=S(=O)([O-])c1ccc(N=Nc2c(O)ccc3cc(S(=O)(=O)[O-])ccc23)cc1.[Na+].[Na+] [Sunset Yellow]', '−');

* * *

Tested on: Staphylococcus aureus
assay method text: Reduction of azo substrates over 24 hours at 35° C., microtitration plate (Example 1)
Assay type: cell-based
Set-up: key: The symbol “+” means good growth/decolourization/significant increase in fluorescence; The symbol “+/−” means difficult growth; The symbol “−” means that there is no growth/decolourization/significant increase in fluorescence
measurement parameters: S. aureus, substrate 35 mg/l
observable: Decol (substrate decolourized, decrease in absorbance)

INSERT INTO results (molecule_smiles, reported) VALUES
  ('CC(=O)Oc1ccc(/N=N/c2ccccc2C(=O)O)cc1', '+'),
  ('Nc1ccc(/N=N/c2ccc(S(=O)(=O)O)cc2)cc1S(=O)(=O)O', '−'),
  ('CN(C)c1ccc(/N=N/c2ccccc2C(=O)O)cc1', '+');

* * *

Test system: Staphylococcus aureus
assay method text: Reduction of azo substrates over 24 hours at 35° C., microtitration plate (Example 1)
Assay type: cell-based
Set-up: key: The symbol “+” means good growth/decolourization/significant increase in fluorescence; The symbol “+/−” means difficult growth; The symbol “−” means that there is no growth/decolourization/significant increase in fluorescence
measurement parameters: S. aureus, substrate 35 mg/l
observable: Decol (substrate decolourized, decrease in absorbance)

INSERT INTO measurements (molecule, reported) VALUES
  ('Oc1ccc2ccccc2c1/N=N/c1ccc(/C=C/c2ccnc3ccccc23)cc1', '+'),
  ('O=C(O)c1ccccc1/N=N/c1cc(Br)c(O)c(Br)c1', '+'),
  ('O=C(O)c1ccccc1/N=N/c1cc(Cl)c(O)c(Cl)c1', '+'),
  ('O=S(=O)([O-])c1ccc(/N=N/c2ccc(O)c3ccccc23)cc1.[Na+]', '+'),
  ('O=C([O-])C1=NN(c2ccc(S(=O)(=O)[O-])cc2)C(=O)C1/N=N/c1ccc(S(=O)(=O)[O-])cc1.[Na+].[Na+].[Na+] (centres unmarked)', '−'),
  ('O=S(=O)([O-])c1ccc(N=Nc2c(O)ccc3cc(S(=O)(=O)[O-])ccc23)cc1.[Na+].[Na+]', '−'),
  ('O=S(=O)([O-])c1ccc2c(N=Nc3cccc4ccccc34)c(O)c(S(=O)(=O)[O-])cc2c1.[Na+].[Na+]', '−'),
  ('O=S(=O)([O-])c1ccc(N=Nc2c(O)ccc3ccccc23)cc1.[Na+]', '−');

* * *

System: Candida albicans
assay method text: Reduction of azo substrates over 24 hours at 35° C., microtitration plate (Example 1)
Assay type: cell-based
Parameters: key: The symbol “+” means good growth/decolourization/significant increase in fluorescence; The symbol “+/−” means difficult growth; The symbol “−” means that there is no growth/decolourization/significant increase in fluorescence
measurement parameters: substrate 35 mg/l
observable: Co (growth, absorbance at 660 nm)

INSERT INTO assay_data (molecule_smiles, reported) VALUES
  ('O=C(O)c1cc(/N=N/c2ccc(-c3nc4ccccc4s3)cc2)ccc1O', '+'),
  ('O=S(=O)([O-])c1ccc2c(N=Nc3cccc4ccccc34)c(O)c(S(=O)(=O)[O-])cc2c1.[Na+].[Na+]', '+'),
  ('CN(C)c1ccc(N=Nc2ccc(S(=O)(=O)[O-])cc2)cc1.[Na+]', '+'),
  ('CC(=O)Oc1ccc(/N=N/c2ccccc2C(=O)O)cc1', '+'),
  ('Oc1ccc2ccccc2c1/N=N/c1ccc(/C=C/c2ccnc3ccccc23)cc1', '+'),
  ('O=C(O)c1ccccc1/N=N/c1cc(Br)c(O)c(Br)c1', '+'),
  ('O=S(=O)([O-])c1ccc(/N=N/c2ccc(O)c3ccccc23)cc1.[Na+]', '+'),
  ('CN(C)c1ccc(/N=N/c2ccccc2C(=O)O)cc1', '+'),
  ('O=C(O)c1ccccc1/N=N/c1cc(Cl)c(O)c(Cl)c1', '+'),
  ('O=S(=O)([O-])c1ccc(N=Nc2c(O)ccc3cc(S(=O)(=O)[O-])ccc23)cc1.[Na+].[Na+]', '+');

* * *

Test system: Candida albicans
assay method text: Reduction of azo substrates over 24 hours at 35° C., microtitration plate (Example 1)
Assay type: cell-based
Parameters: key: RED indicates whether the substrate is reduced (Y) or not (N); RED indicates whether the substrate is reduced (Y) or not (N)
measurement parameters: substrate 35 mg/l
observable: RED (substrate reduced or not)

INSERT INTO results (compound, observable, reported) VALUES
  ('CC(=O)Oc1ccc(/N=N/c2ccccc2C(=O)O)cc1', 'RED (substrate reduced or not)', 'N'),
  ('O=S(=O)([O-])c1ccc(N=Nc2c(O)ccc3ccccc23)cc1.[Na+]', 'RED (substrate reduced or not)', 'N'),
  ('O=C([O-])C1=NN(c2ccc(S(=O)(=O)[O-])cc2)C(=O)C1/N=N/c1ccc(S(=O)(=O)[O-])cc1.[Na+].[Na+].[Na+] (stereo not drawn)', 'RED (substrate reduced or not)', 'N');
